system tested: T1, (7× His)-PSD-95-PDZ2 wild type (UniProt P78352 160-246)
T1 construct: domain: PDZ2; recombinant from E. coli; also called PSD-95-PDZ2 WT; not shown: 7x His tag
T1 sequence (P78352 160-246): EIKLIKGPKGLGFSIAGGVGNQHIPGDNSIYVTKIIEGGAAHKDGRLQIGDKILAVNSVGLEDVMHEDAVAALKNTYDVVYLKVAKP
assay info: FP competition
metric name: Ki

**Query** Tell us which Ki value is on record for THLETTFTGDGTPKTIRVXQPGQ (cyclic; D-Pro; phospho-Thr 123) [cyclic nNOS β-hairpin peptide pT123]
**Result** 1150 nM

**Query** Supply Ki value. Item: THLETTFTGDGXPKTIRVTQPGQ (cyclic; D-Pro; phospho-Thr 116) [cyclic nNOS β-hairpin peptide pT116]
**Result** 210 nM

**Query** Please report Ki for the following binder: THLETTFXGDGTPKTIRVTQPGQ (cyclic; D-Pro; phospho-Thr 112) [cyclic nNOS β-hairpin peptide pT112]
**Result** 2680 nM

**Query** For the binder XHLETTFTGDGTPKTIRVTQPGQ (cyclic; D-Pro; phospho-Thr 105) [cyclic nNOS β-hairpin peptide pT105] , give its measured Ki value.
**Result** 2930 nM
